- test_protocol: yeast display, Sf9 membrane polyspecificity reagent, FACS + sequencing; frameworks hold sequencing errors
measured_property: polyreactivity (PSR sort gate)

// worked examples, polyreactivity (PSR sort gate) included
# macromolecule_sequence, polyreactivity (PSR sort gate)
rows = [
    ("QVQLVESGGGLVQAGGSLRLSCAASGYIFWKNAMGWYRQAPGKERELVAGITIRGGRTYYADSVKGRFTISRDNAKNTVYLQMNSLKPEDTAVYYCNALYDYYDPYGSWGQGTQVTVSS", "high polyreactivity"),
    ("QVQLVESGGGLVQAGGSLRLAVLPPDLPSTLNDRGWYRQAPGKESELVAAITSGGNTYYADSVKGRFTISRDNAKNTVYLQMNSLKPEDTAVYYCAATYYWAWGGVYHSEFDYWGQGTQVTLSS", "low polyreactivity"),
    ("QVQLVESGGGLVQAGGSLRLSCAASGFTYSLYDMGWYRQAPGKERELVAAISSDGSTNYADSVKGRFTISRDNAKNTVYLQMNSLKPEDTAVYYCAADETFLSYWLNYWGQGTQVTVSS", "low polyreactivity"),
    ("QVQLVESGGGLVQAGGSLRLSCAASGLILQYYVMGWYIQAPGKERELVAAITRSGGGTYYADSVKGRFTISRDNAKNTVYLQMNSLKPEDSAVYYCAAQRQYGKFDYWGQGTQVTVSS", "high polyreactivity"),
]

Moving on to the next sequence.
Lookup: Which polyreactivity (PSR sort gate) is reported for this sequence? QVQLVESGGGLVQAGASLRLSCAASGGIFAYYAMGWYRQAPGKERELVAAINRSGGSTRYADSVKGRFTNSRDNAKNTVFLQMNSLKPEETAVYYCATKRSTGYYWGQGTQVTVSS
Found: high polyreactivity

---

- test_protocol: yeast display, Sf9 membrane polyspecificity reagent, FACS + sequencing; frameworks hold sequencing errors
measured_property: polyreactivity (PSR sort gate)

Worked examples, 4 sequences total:
# macromolecule_sequence, polyreactivity (PSR sort gate)
rows = [
    ("QVQLGESGGGLVQAGGSLRLICAASGFIFTTYVMGWYRQAPGKERELVAVISRSGGRTYYADSVKGRFTISRDNEKYTVYLLMNSLKPEDTAVYYCNVDIPVLSHIEYYYWGQGTQVTVSS", "low polyreactivity"),
    ("QVQLVESGGGLVQAGGSLRLSCAASGRTFVGNAIGWYRQATGKERELVAAINGSGGSTYYEDSVKGRFTISRDNAKNTVYLQMNSLKPEDPAVYYCNARPGVYVVIYDYWGQGTQVTVSS", "low polyreactivity"),
    ("QVQLVESGGGLVQAGGSLRLSCAASGFTFYGYAMGWYRQAPGKERELVAAISTRGSRTYYADSVKGRFTISRDNAKNTVYLQMNSLKPEDTAVYYCARRRGPSYGLDYWGQGTQVTVSS", "high polyreactivity"),
    ("QVQLVESGGGLVQAGGSLRLSCAASGRTFLFYAMGWYRQAPGKERELVAAIRRGGSTYYADSVKGRFTISRDNAKNTVYLQMNSLKPEDTAVYYCNAGSALRRSYYRYYYWGQGTQVTVSS", "high polyreactivity"),
]

We next turn to a different sequence, shown below.
Lookup: Requested read-out: polyreactivity (PSR sort gate). Entry: QVQLVESGGGVVQAGGSLRLTCAASGRTCPIYAMGWYRQAPGKERELVATITWNDGNTYYADSVKGRFTISRDNAKNTVYLQMNCLKPEDTAVYYCAAKGGWPWHYHYQKNSEYDYWGQGTQVTVSS
Found: low polyreactivity

---

- test_protocol: yeast display, Sf9 membrane polyspecificity reagent, FACS + sequencing; frameworks hold sequencing errors
measured_property: polyreactivity (PSR sort gate)

# macromolecule_sequence, polyreactivity (PSR sort gate)
measured = [
    ("QVQHVESGGGLLQAGGSLRLSCAASGSIFYVYAMGWYRQAPGKERELVASISCGDSSTYYADSVKGRFTISRDNAKNTVYLQMNILIPEDTAVYYCAADDYRQYALYDYWGQGTHVTVSS", "low polyreactivity"),
    ("QVQLVESGGGLVQAGGSLRLSCAASGFIFGYNAMGWYRQAPGKERELVAAITSRGDRTYYADSVKGRFTISRDNAKNTVYLQMNSLKPEDTAVYYCAKATRGYRSPYGSIGYYYWGQGTQVTVSS", "high polyreactivity"),
    ("QVQLVESGGCLDQAGGSLRLSCAASGRIFNSNTMGWYRQAPGKERELVAAITYSGGSTYYADSVKGRFTISRDNAKNTVYLQMNSLKPEDTAVYYCAADFWEYDGPWYANDYYSWGQGTQVTVSS", "low polyreactivity"),
    ("QVQLVESGGGLVHAGGSLRLSCAASGLTFKRYAMGWSRQAPGKERELVASITGNGGSTYYADSVKGRFTISRDNAKNTVYSQMNSLKPEDTAVYYCNARRYVRTSQQPLYDYWGQGTQVTVSS", "high polyreactivity"),
    ("QVQLVESGGGLVQAGGSLRLSCAPSGSIFYVNAMGWYRQAPGKERELVAAITYDTGRTYYADSVKGRFTISRDNAKNTVYLQKNSLKPEDTAVYYCAVRPGYYWGYWPRFGYWGQGTQVTVSS", "low polyreactivity"),
    ("QVQLVESGGGLVQAGVSLRLSCAASGSIFSKYVMGWYRQAPGKERELVAAISWSGTRTYYADSVKGRFTISRDYAKNSVYLQMNSLKPEDTAVYYCAKYIFTTGLGYWGQGTQVTVSS", "high polyreactivity"),
    ("QVQLVESGGGLVQAGGSLRLSCAASGSIFGYNAMGWYRQAPGKERELVATISSGGSTNYADSVKGRFTISRDNAKNTVYLQMNSLKPEDTAVYYCAKEYGSIIPYDYWGQGTQVTVSS", "low polyreactivity"),
    ("QVQLVESGGGLVQAGGSLRLSCAASGRILKYYDMGWYRQAPGKETELVAAISVSGTSTYYADSVKGRFTISRDNAKNTVYLQMNSLKPEDTAVYYCATATGRYSFDYWGKGTQVTVSS", "low polyreactivity"),
    ("QVKLVESGGGLVQAVGSLRLSCAPSGFTLGSYAMGCYRQAPGKESELVAAITYSGSRTYYADSVKGRFTISRDNAKNTVYLQMNSLKPEDTAVYYCAAVTHYGFDYWGQGTQVTVSS", "high polyreactivity"),
    ("QVQLVESGGGLVQAGGSLRLSCAASGFTFSAYTMGWYRQAPGKERELVAAINWSGANTYYADSVKGRFTISRDNAKNTVYLQMNSLKPEDTAVYYCNAEDDYTYDLSFGGYKYDYWGQGTQVTVSS", "low polyreactivity"),
]

Please examine the following record next.
Lookup: Fill in: polyreactivity (PSR sort gate) of QVQLVESGGGLVQAGGSLRLSCAASGRTFRINAMGWYRQAPGKERELVAAINDGGDTYADSVKGRFTISRDNANNTVYLQMNSLKPEDTAVYYCAAPLGGGARWGRWWLYDSWGQGTQVTVSS is ___
Found: low polyreactivity

---

- test_protocol: yeast display, Sf9 membrane polyspecificity reagent, FACS + sequencing; frameworks hold sequencing errors
measured_property: polyreactivity (PSR sort gate)

# macromolecule_sequence, result
rows = [
    ("QVQLVESGGGLVQAGGSLRLSCAASGRIFYYYAMGWYRQAPGKERELVAAITWSGVNTYYADSVKGRFTISRDNAKNTVYLQMNSLKPEDTAVYYCATDTGYPYSYDLYDSYYWGQGTQVTVSS", "low polyreactivity"),
    ("QVQLVESGGGLVQAGGSLRLSCAASGSTFIFNTMGWYRQAPGKEREVVASITGDGRTNYADSVKGRFTISRDNAKNTVYLQMNSLKPEDTAVYYCAADGYDQYPLWAPPGDYWGQGTQVTVSS", "low polyreactivity"),
    ("QVQLVESGGGLVQAGGSLRLSCAASGSIFYDYAMGWYRQAPGKERELVAAINSGDSTYYADSVKGRFTISRDNAKNTVYLQMNSLKPEDTAVYYCAATYFSPYIEYDYWGQGTQVTVSS", "low polyreactivity"),
    ("QVQLVESGGGLVQSGGSLRLSCDASGITFKYAMGCYSQAPWKESELVAAISWSGGRTYYADSVKGRFTISRDNAKNTVYLQMNSLKPEDTAVYYCNAYRRYNDEDYWGQGTQVTVSS", "high polyreactivity"),
    ("QVQLVESGGGLVQAGGSLRLSCAASGSTIYWYAMGWYRQAPGKERELVAAISLSGGSTYYADSVKGRFTFSRDNAKNTVYLQMNSLKPEDTAVYYCAARTSYYVYRHPSGRYDYWGQGTQVTVSS", "low polyreactivity"),
    ("QVQLVESGGGLVQAGGSLRLSCAASGIIFGGYAMGWYRQAPGKERELVASISYSGGSTYYADSVKGRFTISRDNAKNTVYLQMNSLKPEDTAVYYCAAGYPRTPAAGYYWGQGTQVTVSS", "high polyreactivity"),
    ("QVQLVESGGGLVQAGGSLRLSCAASGRTFTYYAMGWYRQAPGKERELVAAISRGGGSTHYADSVKGRFTISRDNEKNTVYLQMNSLKPEDTAVYYCAARYSTRYKYDYWGQGTQVTVSS", "high polyreactivity"),
    ("QVQLVESGGGLVQAGGSLRLSCAASGRIFKLNAMGWYRQAPGKERELVAAITRGGRTYYADSVKGRFTISRDNAKNTVYLQMNSLKPEDTAVYYCNKKTYQQTYKYDYWGQGTQVTVSS", "high polyreactivity"),
]

Kindly give each listed record's polyreactivity (PSR sort gate).
1. QVQLVESGGGLVQAGGSLRLSCAASGSTFSLYGMGWYRQAPGKERELVAAIRRSGGRTYYADSVKGRFTISRDNAKNTVYLQMNSLKPEDTAVYYCAKSVPRYYSKSGLAYEFDYWGQGTQVTVSS
2. QVQLVESGGGLVQAGGSLRLSCAASGRIFYYYAMGWYRQAPGKERELVATITTTGNTYYADSVKGRFTISRDNAKNTVYLQMNSLKPEDTAVYYCNAGWDLVYGYYPRRKNFDYWGQRTQVTVSS
3. QVHLVESGGGLVQAGGSLRLSCAASGSIFSSYAMGWYRQAPGKEREFVAAISWGGGSTYYADSVKGRFTISRDNAKNSVYLQMNSLKPEDTAVYYCAVETWLYPYDYWGQGTQVTVSS

Found:
1: low polyreactivity; 2: high polyreactivity; 3: high polyreactivity
